Sourced from ChEMBL document CHEMBL3352801

# experiment summary: Solubility of the compound at room temperature
# Type: physicochemical
measurement label: solubility (µg/mL)
Answer format: numeric, µg/mL implied, no suffix.

CCn1c(-c2ccc(OCCN(C)c3ccccn3)cc2)nc2c1c(=O)n(Cc1ccccc1C#N)c(=O)n2C 1000

Could you now look at the following compound, please?
If you can, please state the reported solubility value of CCn1c(-c2ccc(OCCN(C)c3ccccn3)cc2)nc2c1c(=O)n(Cc1ccccc1C#N)c(=O)n2C.Cl .
3280

----------
# experiment summary: Total clearance in Sprague-Dawley rat at 20 mg/kg, po
# Type: ADME, organism-based
# Parameters: dose 20 mg/kg, route oral
# run parameters: in vivo
measurement label: CL/F
Write down the value, and be sure its unit follows.

CCn1c(-c2ccc(OCCN(C)c3ccccn3)cc2)nc2c1c(=O)n(Cc1ccccc1C#N)c(=O)n2C.Cl 139 mL/min/kg

If you can, please state the reported CL/F value of CCn1c(-c2ccc(OCCN(C)c3ccccn3)cc2)nc2c1c(=O)n(Cc1ccccc1C#N)c(=O)n2C .
1030 mL/min/kg

----------
# experiment summary: Half life in Sprague-Dawley rat at 20 mg/kg, po
# Type: ADME, organism-based
# Set-up: dose 20 mg/kg, route oral
# run parameters: in vivo
measurement label: half-life

CCn1c(-c2ccc(OCCN(C)c3ccccn3)cc2)nc2c1c(=O)n(Cc1ccccc1C#N)c(=O)n2C 6.3 h

Could you now look at the following compound, please?
If you can, please state the reported half-life value of CCn1c(-c2ccc(OCCN(C)c3ccccn3)cc2)nc2c1c(=O)n(Cc1ccccc1C#N)c(=O)n2C.Cl .
6.97 h

----------
Quick reference for half-life among some compounds
# experiment summary: Half life in Sprague-Dawley rat at 5 mg/kg, iv
# Type: ADME, organism-based
# Design: dose 5 mg/kg, route intravenous
# run parameters: in vivo
Answer format: numeric, min implied, no suffix.

CCn1c(-c2ccc(OCCN(C)c3ccccn3)cc2)nc2c1c(=O)n(Cc1ccccc1C#N)c(=O)n2C.Cl 349

Could you now look at the following compound, please?
If you can, please state the reported half-life value of CCn1c(-c2ccc(OCCN(C)c3ccccn3)cc2)nc2c1c(=O)n(Cc1ccccc1C#N)c(=O)n2C .
530

----------
Quick reference for AUC(0-t) among some compounds
# experiment summary: AUC (0 to t) in Sprague-Dawley rat at 5 mg/kg, iv
# Type: ADME, organism-based
# Parameters: dose 5 mg/kg, route intravenous
# run parameters: plasma

CCn1c(-c2ccc(OCCN(C)c3ccccn3)cc2)nc2c1c(=O)n(Cc1ccccc1C#N)c(=O)n2C 404 ng·h/mL

If you can, please state the reported AUC(0-t) value of CCn1c(-c2ccc(OCCN(C)c3ccccn3)cc2)nc2c1c(=O)n(Cc1ccccc1C#N)c(=O)n2C.Cl .
1780 ng·h/mL

----------
# System: 3T3-L1
# experiment summary: Inhibition of triglyceride accumulation in mouse 3T3L1 cells at 10 uM after 24 hrs
# Format: functional
Activity calls are given as the source filed them. No cut-off for these calls is given here.
Outcome field: choose from 1.0 = active, 0.0 = inactive

Reference set (6 entries):
CN(CCOc1ccc(-c2nc3c(c(=O)[nH]c(=O)n3C)n2COC(=O)C(C)(C)C)cc1)c1ccccn1 1.0
CCOC(=O)Cn1c(-c2ccc(OCCN(C)c3ccccn3)cc2)nc2c1c(=O)n(Cc1ccccc1C#N)c(=O)n2C 0.0
CN(CCOc1ccc(-c2nc3c(c(=O)n(Cc4ccccc4C#N)c(=O)n3C)n2CCCC(=O)O)cc1)c1ccccn1 0.0
CCOC(=O)CCCn1c(-c2ccc(OCCN(C)c3ccccn3)cc2)nc2c1c(=O)n(Cc1ccccc1C#N)c(=O)n2C 0.0
CN(CCOc1ccc(-c2nc3c(c(=O)n(Cc4ccccc4C#N)c(=O)n3C)n2CCO)cc1)c1ccccn1 1.0
CCOC(=O)CCCn1c(=O)c2c(nc(-c3ccc(OCCN(C)c4ccccn4)cc3)n2COC(=O)C(C)(C)C)n(C)c1=O 0.0

GET /call?item= C=CCn1c(-c2ccc(OCCN(C)c3ccccn3)cc2)nc2c1c(=O)n(Cc1ccc(F)cc1)c(=O)n2C returns the recorded outcome of this test.
0.0

# repeat for CCn1c(-c2ccc(OCCN(C)c3ccccn3)cc2)nc2c1c(=O)n(Cc1ccc(OC)cc1)c(=O)n2C
0.0

# repeat for CCOC(=O)Cn1c(=O)c2c(nc(-c3ccc(OCCN(C)c4ccccn4)cc3)n2COC(=O)C(C)(C)C)n(C)c1=O
0.0

# repeat for C=CCn1c(-c2ccc(OCCN(C)c3ccccn3)cc2)nc2c1c(=O)n(Cc1ccccc1C#N)c(=O)n2C
0.0

# repeat for COc1ccc(Cn2c(=O)c3[nH]c(-c4ccc(OCCN(C)c5ccccn5)cc4)nc3n(C)c2=O)cc1
0.0

# repeat for CC(C)=CCn1c(-c2ccc(OCCN(C)c3ccccn3)cc2)nc2c1c(=O)n(Cc1ccccc1C#N)c(=O)n2C
0.0

# repeat for CCCCn1c(-c2ccc(OCCN(C)c3ccccn3)cc2)nc2c1c(=O)n(Cc1ccccc1C#N)c(=O)n2C
1.0

# repeat for CN(CCOc1ccc(-c2nc3c(c(=O)n(Cc4ccccc4C#N)c(=O)n3C)n2C)cc1)c1ccccn1
0.0

# repeat for CCCn1c(=O)c2c(nc(-c3ccc(OCCN(C)c4ccccn4)cc3)n2CCC)n(C)c1=O
0.0

# repeat for CN(CCOc1ccc(-c2nc3c(c(=O)n(CC(=O)O)c(=O)n3C)n2CC(=O)O)cc1)c1ccccn1
1.0

# repeat for CC(C)Cn1c(-c2ccc(OCCN(C)c3ccccn3)cc2)nc2c1c(=O)n(Cc1ccccc1C#N)c(=O)n2C
0.0
